Experiment: reduction of polyQ htt aggregates in cells – imaging, exon1htt(103Q)mCFP cells, high-content imaging, primary screen (AID 483);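 also: compound exposure lasted 3 days before fixation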
Conditions: exon1htt(103Q)mCFP cell line, aggregate imaging, at 2 µM
Activity calls are given as the source filed them.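 The calls were made as follows: active = visual image review flags a hit and inhibition of aggregation exceeds 20%; inconclusive = visual hit but inhibition at or below 20%; inactive = no hit on visual image review.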
Respond with a class label; see TRUE for active, FALSE for inactive

Solved entries:
compound=Cc1cccc(C)c1OCc1nnc(SCC(=O)Nc2ccccc2F)o1 category_label=FALSE
compound="Cc1cc(C)c(C)c(OCC(=O)NCC2CCCO2)c1 (stereo unspecified)" category_label=FALSE

Ask: Test call, this compound: CCn1c(=O)c2cc(S(=O)(=O)NCc3ccccc3)ccc2n(CC)c1=O
Result: FALSE

Ask: Test call, this compound: NC(=O)C1CCN(C(=S)c2cccs2)CC1
Result: FALSE

Ask: Test call, this compound: Cc1nc(NC2=NCN(CC3CCCO3)CN2)nc2ccccc12 (stereo unspecified)
Result: TRUE

Ask: Test call, this compound: C=CCn1c(N)c(C(=O)NCCC2=CCCCC2)sc1=S
Result: FALSE

Ask: Test call, this compound: CC(C)OC(=O)CSc1nnc(-c2ccc(C(C)(C)C)cc2)n1N
Result: FALSE

Ask: Test call, this compound: COc1ccccc1OCCCn1c(=O)oc2ccccc21
Result: FALSE

Ask: Test call, this compound: CN(C)C(=O)N1CCN(C(=O)c2ccco2)CC1
Result: FALSE
